Assay: ACEA_ER_AUC_viability: ACEA Biosciences xCELLigence Real-Time Cell Analysis on Estrogen Receptor Agonism for Viability (AID 2283782);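 further: continuous compound exposure with impedance area under curve over 80 h; hit means loss of impedance signal meaning reduced cell growth or viability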
Protocol: ACEA_ER is a cell-based, single-readout assay that uses T47D, a human breast cell line, with measurements taken at 80 hours after chemical dosing in a 96-well plate, although TO2 (mc0.srcf) used a 384-well plate. Differences in plate size can be ignored given data normalization.ACEA_ER_AUC_viability is one of two assay component(s) measured or calculated from the ACEA_ER assay. […]
Inconclusive results are not listed. Calls of active or inactive are those of the source. How the source made its calls: active means hit-call score of the fitted dose curve at least 0.9, where 1 is the maximum; inconclusive means response in the unintended direction; inactive means score below 0.9.
Outcome field: choose from t for active, f for inactive

compound	class name
Nc1ccccc1C(=O)Oc1ccc2ccccc2c1	t

Lookup: What classification did CC(C)=CC1C(C(=O)OC(C#N)c2cccc(Oc3ccccc3)c2)C1(C)C (stereo not drawn) end up with in this test?
Found: f

Lookup: Given CCOC(=O)C1OC1(C)c1ccccc1 (stereo not drawn) , state the outcome it received in this test.
Found: f

Lookup: Please state the recorded outcome for this compound: O=S(=O)(O)O
Found: t

Lookup: Record lookup: outcome of this test for O=[N+]([O-])C=Cc1ccccc1 ?
Found: f

Lookup: Hi, do you know how COC(C)(C)CCC[C@H](C)C/C=C/C(C)=C/C(=O)OC(C)C came out in this test?
Found: t

Lookup: Tell me the assay call for C#CC1(O)CCCCC1 please.
Found: t

Lookup: Tell me the assay call for CC(C)(Cl)Cl please.
Found: f

Values were extracted from PubChem BioAssay (EPA / NIEHS).
